# Tested on: CEM cells HIV-1 protection, formazan growth assay
# Test: NCI AIDS Antiviral Assay;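 active = compounds giving half or more protection of infected cells from virus-caused growth loss, again on retest; inactive = the rest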
Write down the outcome that applies. Available outcomes: active, inactive

| Compound | Discrete label |
| --- | --- |
| COC(=O)C1SC[C@H]2C(=O)N(c3ccccc3)C(=O)N12 (some centres undefined) | inactive |

Recorded call for `NNC(=O)/C(=C/c1ccc(Cl)cc1Cl)NC(=O)c1ccccc1` ?
inactive

Recorded call for `COc1ccc(N2C(=O)c3c(c4[nH]c5ccc(OC)cc5c4c4ccc(C(C)(C)C)cc34)C2=O)cc1` ?
inactive

Recorded call for `Nc1ncc(N)c(N)n1` ?
inactive

Recorded call for Cc1cn2c(nc1=O)OC1C(O)C(CCl)OC12 (centres undefined) ?
inactive

Recorded call for `CCOP(=S)(NN=C1CCCC1)OCC` ?
inactive

Recorded call for N#CC(c1ccccc1)N(CCc1ccccc1)C(=O)c1ccc(C(=O)N(CCc2ccccc2)C(C#N)c2ccccc2)cc1 (centres undefined) ?
inactive

Recorded call for `Cc1nnc(CC#N)n1NC(=O)CC#N` ?
inactive

Recorded call for `O=Nc1ccc(O)cc1O` ?
inactive

Recorded call for CC1S/C(=N\N=C\c2ccc(Cl)cc2)N=C1c1c(O)c2ccccc2oc1=O (centres undefined) ?
inactive

Recorded call for `CCN(CC)CCOc1ccc(/C(C#N)=C/c2ccc(SC(C)C)cc2)cc1` ?
inactive

---

# Test system: CEM cells HIV-1 protection, formazan growth assay
# Test: NCI AIDS Antiviral Assay
# Measurement setup: measured here: growth of uninfected CEM cells
Recorded metric: IC50

Sample records with IC50:
| Molecule | Data value |
| --- | --- |
| C[C@@H]1OCC(O)C([C@H]2OC(c3ccccc3)=N[C@H]2CO)O1 (stereo not given in full) | > 200 µM |
| OC1CSc2nc3ccccc3n2C1 (stereo not given) | > 200 µM |
| CCOC(=O)c1ccc(N=c2sc3ccccc3nc2Nc2ccc(C(=O)OCC)cc2)cc1 | > 200 µM |
| O=C(CCc1ccc(O)cc1)NCCc1cccc(O)c1 | > 100 µM |

# input molecule: O/N=C1/C(=C/c2ccc(Cl)cc2)CCCC1C(NO)c1ccc(Cl)cc1 (stereo not given) ; wanted: its IC50
> 13.5 µM

# input molecule: C=CC(=O)NC(O)(C(=O)OCC)C(F)(F)F (stereo not given) ; wanted: its IC50
> 200 µM

# input molecule: C/C(CC1(O)C(=O)Nc2ccccc21)=N\O (stereo not given) ; wanted: its IC50
> 200 µM

---

# Test system: CEM cells HIV-1 protection, formazan growth assay
# Test: NCI AIDS Antiviral Assay
# Measurement setup: measured here: growth of uninfected CEM cells
pIC50: −log10 of the molar value. Where a SMILES comes first, the peptide text is derived from it. [ ]: non-standard residue; d: D form. The star is where a group is joined. Hyp = O=C(O)[CH]1C[CH](O)CN1; Cbz = O=C(OCc1ccccc1)*
Recorded metric: pIC50

Sample records with pIC50:
| Compound | pIC50 |
| --- | --- |
| CSc1nc(N)n(C(=O)c2ccccc2Br)n1 | < 3.38 |
| N/C(=N/O)C(F)(F)C(F)(F)C(F)(F)/C(N)=N\O | < 3.70 |

The record that follows has no pIC50 shown yet.
# input compound: NC(=O)CNC(=O)C1CC(O)CN1C(=O)C1CCCN1C(=O)OCc1ccccc1 (stereo not drawn) (Cbz-Pro-[Hyp]-Gly-NH2; configuration not given here) ; wanted: its pIC50
< 3.70

---

In this section we review reported pIC50 values for a set of compounds.
# System: CEM cells HIV-1 protection, formazan growth assay
# Test: NCI AIDS Antiviral Assay
# Measurement setup: measured here: growth of uninfected CEM cells
pIC50: −log10 of the molar value.

Sample records with pIC50:
| Compound | Recorded metric | Data value |
| --- | --- | --- |
| CC1CSS(=O)O1 (stereo not drawn) | pIC50 | < 3.70 |
| CN1CCN(Cc2ccccc2)CC1CC#N (stereo not drawn) | pIC50 | < 3.70 |

# input compound: `COc1ccc(OC)c(NC(=O)CCC/C(CC(=O)c2ccc(O)c(OC)c2)=N\Nc2nnc(C)n2N)c1` ; wanted: its pIC50
< 5.14

---

In this section we review reported pIC50 values for a set of compounds.
# Tested on: CEM cells HIV-1 protection, formazan growth assay
# Test: NCI AIDS Antiviral Assay
# Measurement setup: measured here: growth of uninfected CEM cells
pIC50: −log10 of the molar value.

Sample records with pIC50:
| Compound | pIC50 |
| --- | --- |
| Nc1ncnc2c1N=C(c1ccccc1)CC(c1ccccc1)N2 (configuration not stated) | < 3.70 |
| CCOC(=O)C(NC(C)=O)(Nc1ccc(S(N)(=O)=O)cc1)C(F)(F)F (configuration not stated) | < 3.70 |

# input compound: `CC(=O)Nc1ccccc1C[P+](c1ccccc1)(c1ccccc1)c1ccccc1` ; wanted: its pIC50
< 3.70

# input compound: CC1(c2ccccc2)N=C(C(N)=O)c2[nH]cnc2N1 (configuration not stated) ; wanted: its pIC50
< 3.70

# input compound: `COC(=O)C1=C(C(=O)OC)P2(C)(C)SC(=S)N2C1(c1ccccc1)c1ccccc1` ; wanted: its pIC50
< 3.70

# input compound: CCCCN(CCCC)CC(C(=O)Nc1ccc([N+](=O)[O-])cc1[N+](=O)[O-])/C(C)=N\NC(=O)c1ccncc1 (configuration not stated) ; wanted: its pIC50
< 4.25

# input compound: `CN(C)COC(=S)SC(=O)OCCCl` ; wanted: its pIC50
< 3.70

# input compound: O=C(O)c1ccccc1C(=O)OC1CC2CCC1C2 (configuration not stated) ; wanted: its pIC50
< 3.70

# input compound: `CC1(C)CC(=O)C(CC2C(=O)c3ccccc3C2=O)C(=O)C1` ; wanted: its pIC50
< 3.92

# input compound: `CNC(=O)CCNC(=O)CCC(=O)N(C)C` ; wanted: its pIC50
< 3.70

# input compound: `COc1ccc(N(C(=O)NCCO)c2ccccc2)cc1` ; wanted: its pIC50
< 3.70

# input compound: `O=C1c2c(ccc3c2CCCC3)CC12Cc1ccc3c(c1C2=O)CCCC3` ; wanted: its pIC50
< 3.70

---

# Tested on: CEM cells HIV-1 protection, formazan growth assay
# Test: NCI AIDS Antiviral Assay
# Measurement setup: measured here: growth of uninfected CEM cells
In this section we review reported IC50 values for a set of compounds.

Sample records with IC50:
| Compound | IC50 |
| --- | --- |
| NC(=O)C(N)C(F)c1ccccc1 (centres undefined) | > 200 µM |
| CC(=O)Nc1ccc(/C=C2\N=C(c3ccccc3)OC2=O)cc1 | > 12.3 µM |
| Cc1ccc(/S(Cc2ccccc2)=N\S(=O)(=O)c2ccc(C)cc2)cc1 (centres undefined) | > 67.6 µM |
| O=S(=O)(O)c1cc(O)c2c(N=Nc3ccc(Nc4ccccc4)c4c(S(=O)(=O)O)cccc34)cc(S(=O)(=O)O)cc2c1 | > 200 µM |
| Cc1cn(CCCCCOC(=O)NC(CCCNC(N)=O)C(=O)O)c(=O)[nH]c1=O (centres undefined) | > 200 µM |
| CS(=O)CCN=Cc1ccc(N=Nc2ccc(O)cc2)cc1 (centres undefined) | 1.78 µM |

What is its IC50 for CEM cells HIV-1 protection, formazan growth assay? Entry: CSc1nc2c(n1-c1ccccc1)C(=O)C(OS(=O)(=O)c1ccccc1)C(=O)N2 (centres undefined)
> 200 µM

What is its IC50 for CEM cells HIV-1 protection, formazan growth assay? Entry: `O=c1[nH]nc(Cc2ccccc2)n1CCCl`
> 200 µM

What is its IC50 for CEM cells HIV-1 protection, formazan growth assay? Entry: COc1cc2c(cc1OC)C1c3ccccc3CCN1CC2 (centres undefined)
93.3 µM

What is its IC50 for CEM cells HIV-1 protection, formazan growth assay? Entry: CCOC(=O)[C@H]1Nc2ccccc2C2c3ccccc3CC21 (some centres undefined)
> 64.6 µM

What is its IC50 for CEM cells HIV-1 protection, formazan growth assay? Entry: CC(Cc1ccccc1)NC(=O)CCNNC(=O)c1ccncc1 (centres undefined)
> 200 µM

What is its IC50 for CEM cells HIV-1 protection, formazan growth assay? Entry: CC(=O)NC(CCCN)C(=O)NCc1ccccc1 (centres undefined)
> 955 µM

What is its IC50 for CEM cells HIV-1 protection, formazan growth assay? Entry: `COc1ccc([C@@]23CCC(=O)C[C@@H]2N(C)CC3)cc1OC`
> 200 µM

What is its IC50 for CEM cells HIV-1 protection, formazan growth assay? Entry: `Cc1ccc(S)c(C(O)(C(F)(F)F)C(F)(F)F)c1`
12 µM

What is its IC50 for CEM cells HIV-1 protection, formazan growth assay? Entry: `CCN(CC)C(=O)C(C)=O`
> 1740 µM

What is its IC50 for CEM cells HIV-1 protection, formazan growth assay? Entry: `O=S(=O)(O)c1ccc(N/N=C/c2ccccc2)cc1`
794 µM

What is its IC50 for CEM cells HIV-1 protection, formazan growth assay? Entry: `CC(C)/C(Cl)=N\OC(=O)Nc1cccc(Cl)c1`
5.01 µM

What is its IC50 for CEM cells HIV-1 protection, formazan growth assay? Entry: `Oc1cc2c(cc1O)-c1[nH]ncc1CC2`
33.1 µM

What is its IC50 for CEM cells HIV-1 protection, formazan growth assay? Entry: COc1cccc(C(NC2=NCCC=N2)c2cc3c(cc2O)OCO3)c1O (centres undefined)
35.5 µM
